Origin of the recorded values: patent US20250152585A1

As shown below, each of these molecules has a reported pKd value.
target: UniProtKB P09874; assay: PARP1 probe displacement HTRF assay; conditions: read-out: PARP1 HTRF; binned Kd, probe displacement HTRF
Sequence (P09874 whole entry): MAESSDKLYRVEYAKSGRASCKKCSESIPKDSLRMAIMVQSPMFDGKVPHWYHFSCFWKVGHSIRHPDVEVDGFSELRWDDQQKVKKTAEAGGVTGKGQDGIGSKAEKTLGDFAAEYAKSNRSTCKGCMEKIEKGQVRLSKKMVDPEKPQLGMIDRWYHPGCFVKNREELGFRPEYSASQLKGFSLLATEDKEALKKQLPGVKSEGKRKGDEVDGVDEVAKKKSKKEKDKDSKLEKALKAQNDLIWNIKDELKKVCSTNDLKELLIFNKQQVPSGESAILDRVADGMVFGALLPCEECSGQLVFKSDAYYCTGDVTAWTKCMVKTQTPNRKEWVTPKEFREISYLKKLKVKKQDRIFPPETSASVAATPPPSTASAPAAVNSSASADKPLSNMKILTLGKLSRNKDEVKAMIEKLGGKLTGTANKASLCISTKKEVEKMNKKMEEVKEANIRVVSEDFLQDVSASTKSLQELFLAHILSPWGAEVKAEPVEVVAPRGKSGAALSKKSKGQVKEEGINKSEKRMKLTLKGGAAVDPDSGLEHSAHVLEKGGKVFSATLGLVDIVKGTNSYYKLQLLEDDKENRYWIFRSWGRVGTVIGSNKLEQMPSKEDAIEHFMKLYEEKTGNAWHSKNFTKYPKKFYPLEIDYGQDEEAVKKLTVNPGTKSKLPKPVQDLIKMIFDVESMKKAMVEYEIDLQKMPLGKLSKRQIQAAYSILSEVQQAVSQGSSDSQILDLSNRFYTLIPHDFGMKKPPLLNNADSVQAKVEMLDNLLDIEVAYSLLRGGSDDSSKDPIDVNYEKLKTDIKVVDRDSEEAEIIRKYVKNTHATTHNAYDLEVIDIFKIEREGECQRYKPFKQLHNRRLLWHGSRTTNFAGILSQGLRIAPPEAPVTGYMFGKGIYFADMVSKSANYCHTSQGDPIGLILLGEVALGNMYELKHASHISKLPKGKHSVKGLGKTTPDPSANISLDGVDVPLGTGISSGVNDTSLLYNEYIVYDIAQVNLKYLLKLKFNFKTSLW
pKd: −log10 of the molar value.

CC(=O)Nc1ccc(N2CCC(N3CCC(c4cc5ccccc5c(=O)[nH]4)C3)CC2)cn1 (single isomer, unassigned) [Compound 306a] | 6.00 to 7.00

# return recorded pKd for entry O=C(NC1COC1)c1ccc(N2CCC(N3CCC(c4nc5ccccc5c(=O)[nH]4)C3)CC2)cn1 (racemic)
> 8.00

Fill in pKd for record CNC(=O)c1ccc(N2CCC(N3CCC(c4cc5[nH]nc(C(F)(F)F)c5c(=O)[nH]4)C3)CC2)c(F)n1 (single isomer, unassigned) [Compound 280a]
7.00 to 8.00

Entry CCCc1ccc(C2CCN(C3CCN(c4ccc(C(=O)NC)nc4F)CC3)C2)[nH]c1=O (single isomer, unassigned) [Compound 269b] needs its pKd filled in; supply it.
6.00 to 7.00

Entry CNC(=O)c1ccc(N2CCC(N3CC4(c5nc6ccccc6c(=O)[nH]5)CCC3C4)CC2)cn1 (single isomer, unassigned) [Compound 245a] needs its pKd filled in; supply it.
> 8.00

Give the reported value of pKd for this record: CNC(=O)c1ccc(N2CCC(N3CCC(c4ccc(CC5CC5)c(=O)[nH]4)C3)CC2)c(F)n1 (single isomer, unassigned) [Compound 313b]
> 8.00
